Ok so here's the combined literature set: IC50 for Prostaglandin G/H synthase 1 (Ovis aries, UniProt P05979).

Q) May I ask what IC50 has been recorded for Cc1c(Cl)cccc1NC(=O)C(C)Oc1cc(=O)oc2ccccc12 (racemic) ?
A) 4.61 µM

Q) Form field: reported IC50 of C#Cc1cccc(Nc2ncnc3cc(OCCOC(=O)CC4=C(C)/C(=C\c5ccc([S+](C)[O-])cc5)c5ccc(F)cc54)c(OCCOC)cc23)c1 (stereo not drawn)
A) > 10 µM

Q) // IC50 lookup, key: `COc1ccc(/N=N/c2ccc(S(N)(=O)=O)cc2)cc1OC`
A) > 100 µM

Q) # input compound: `CS(=O)(=O)c1ccc(/C(=C/c2ccc(Cl)cc2)c2ccccc2)cc1` ; wanted: its IC50
A) > 100 µM

Q) Fill in the blank: the reported IC50 of `C/C=C(\C)C(=O)O[C@@H]1[C@@H](C)[C@@]2(O)[C@@H](C=C(CO)C[C@]3(O)C(=O)C(C)=C[C@@H]23)[C@@H]2C(C)(C)[C@]12OC(=O)C(C)C` is ____.
A) > 50 µM

Q) Report IC50 for `CC(C)(C)Oc1cc(-c2ccccc2)c(-c2ccc(S(C)(=O)=O)cc2)c(=O)o1` please.
A) > 100 µM

Q) What value of measured IC50 is listed for `COc1ccc(-c2noc(CC(=O)Nc3ccc(-c4ccc(N)cc4)cc3)c2-c2ccc(OC)cc2)cc1` ?
A) 0.075 µM

Q) Quick one: IC50 of `CS(=O)(=O)c1ccc(C2=C(c3ccc(S(=O)(=O)N=[N+]=[N-])cc3)C(=O)OC2)cc1` ?
A) 31.5 µM

---

# log10 of IC50 against Prostaglandin G/H synthase 1 (Ovis aries), merged from multiple literature sources
Form field - Quantity: IC50; Unit: µM; Scale: log10

Q) Give Prostaglandin G/H synthase 1 (Ovis aries) log10 of IC50 for `COc1ccccc1C1=Cc2ccccc2C1`
A) -0.34

Q) Could you share what log10 of IC50 was measured for `COc1ccc(-c2cc(-c3ccc(S(C)(=O)=O)cc3)c(-c3ccccc3)c(=O)o2)cc1` , tested on Prostaglandin G/H synthase 1 (Ovis aries)?
A) 1.50

Q) What measured log10 of IC50 is associated with `COc1cc(-c2nc(Nc3ccc(F)cc3)c3c4c(sc3n2)CCCC4)cc(OC)c1OC` on Prostaglandin G/H synthase 1 (Ovis aries)?
A) 1.04

Q) Could you share what log10 of IC50 was measured for CC1CCC(=O)C(C2CC(=O)N(c3ccccc3)C2=O)C1 (stereo unspecified) , tested on Prostaglandin G/H synthase 1 (Ovis aries)?
A) 1.72

Q) For Prostaglandin G/H synthase 1 (Ovis aries), provide log10 of IC50 of `CC(C)Oc1cc(-c2ccccc2)c(-c2ccc(S(C)(=O)=O)cc2)c(=O)o1` please.
A) 0.60

Q) Give the reported log10 of IC50 for NS(=O)(=O)c1ccc(N2N=C(c3cccs3)CC2c2cccs2)cc1 (stereo unspecified) (system: Prostaglandin G/H synthase 1 (Ovis aries)).
A) 1.21

---

For reference, the following log10(IC50) results for Prostaglandin G/H synthase 1 (Ovis aries, UniProt P05979) were taken from various sources.
// stored as log10 of IC50 expressed in µM

Q) Quick check: log10(IC50) of `COc1ccc(CN2CCN(C(=O)c3cc4cc(Cl)ccc4n3Cc3ccc(F)cc3)CC2)cc1` ?
A) -0.71

Q) Which log10(IC50) value belongs to `O=C(Nc1ccc(F)cc1)c1ccc(O)nc1` ?
A) 0.54

Q) Fill in: log10(IC50) of `CS(=O)(=O)c1ccc(-c2ccc(N)cc2-c2ccccc2)cc1` is ___
A) 1.23

Q) Could you share which log10(IC50) value was measured for `CS(=O)(=O)c1ccc(-c2cc(C(=O)O)ccc2-c2ccccc2)cc1` ?
A) 2.37

Q) # query: log10(IC50) of entry `CS(=O)(=O)c1ccc(-c2nnnn2-c2ccc(CO)cc2)cc1`
A) 0.95

---

Before we begin, note that these IC50 values for Prostaglandin G/H synthase 1 (Ovis aries) originate from several publications.
Flag rule - IC50 less than 20 µM flags true; the remaining entries get false.

Q) For `Cc1cc(-c2ccc(NS(C)(=O)=O)cc2)n(-c2ccc(Cl)cc2)n1` , is the recorded IC50 below the cut-off of 20 µM?
A) false

Q) Is the reported IC50 for `CS(=O)(=O)c1ccc(C(=O)/C(=C/c2cccs2)c2ccccc2)cc1` strictly below 20 µM?
A) true

Q) # check: IC50 < 20 µM for `COc1ccc(-c2ccccc2-c2nc3ccccc3o2)cc1Cl`
A) false

Q) Below 20 µM on IC50? Entry `O=C(Nc1ccc(Br)cc1)c1cnc(O)c(Cl)c1`
A) false

Q) Does this compound meet the criterion IC50 < 20 µM? `CCCCC1C(=O)N(c2ccccc2)N(c2ccccc2)C1=O`
A) false

Q) Quick check: IC50 of `O=S(=O)(Nc1ncccn1)c1ccc(NCNc2n[nH]c(=S)s2)cc1` under 20 µM?
A) false

Q) Does the reported IC50 of `Cc1ccc(-c2cc(C(F)(F)F)nn2-c2ccc(S(=O)(=O)NCCCCCCC(=O)NO)cc2)cc1` stay below 20 µM?
A) true

Q) Is the reported IC50 for `C[Si](C)(C)c1onc(-c2ccc(F)cc2)c1-c1ccc(S(C)(=O)=O)cc1` strictly below 20 µM?
A) false

Q) Lab note: IC50 threshold 20 µM. Does this compound come in strictly under it? `COC(=O)Cc1c(C)n(Cc2ccc(-c3cn(CCCCCCCC(=O)NO)nn3)cc2)c2ccc(OC)cc12`
A) true

Q) Identify whether the compound `CC(C)(C)c1cc(/C=N/NC(=O)c2ccccc2O)c(O)c(C(C)(C)C)c1` records IC50 below 20 µM.
A) false

Q) Please determine if CS(=O)(=O)c1ccc(C2Sc3ccccc3C(=O)N2c2ccccc2)cc1 (stereo unspecified) is below 20 µM in terms of IC50.
A) true

Q) is_below(IC50, 20 µM) for CS(=O)(=O)c1ccc(C2=NN(c3ccc(C(=O)O)cc3)C(c3ccc(Cl)cc3)C2)cc1 (stereo unspecified) ?
A) true

Q) Is IC50 strictly under 20 µM for the entry `CS(=O)(=O)c1ccc(C2=C(c3cccc(O)c3)C(=O)OC2)cc1` ?
A) false

Q) I wonder whether `COc1ccc2c(c1)c(CC(=O)NNCc1ccccc1)c(C)n2C(=O)c1ccc(Cl)cc1` has IC50 below 20 µM. Can you tell?
A) false

Q) Determine whether this compound shows IC50 lower than 20 µM (ties excluded): COc1ccc2cc(C(C)c3nnc(SC4CCCC4)o3)ccc2c1 (stereo unspecified)
A) false

Q) IC50 strictly < 20 µM for this compound? `CC(=O)c1c(C)cc2cccc(O)c2c1O`
A) false

Q) Problem: For the compound S=C1NN2C(c3ccccc3)=CC(c3ccc(Br)cc3)N=C2S1 (stereo unspecified) , is IC50 under 20 µM?
A) false

Q) Just wondering, is IC50 of `CC(=O)NS(=O)(=O)c1ccc(-c2ccn(C(F)F)c(=O)c2)cc1C(=O)O` below 20 µM?
A) false

Q) is_below(IC50, 20 µM) for `Nc1nc(N)c(F)c(-c2nc(-c3ccc(F)cc3)c(-c3ccncc3)[nH]2)c1F` ?
A) false

---

We begin with log10 IC50 values for Prostaglandin G/H synthase 1 (Ovis aries, UniProt P05979), as collected from the published literature.
Please note: log10 values; quantity IC50; unit µM.

Q) Dear colleague, I am looking for the recorded log10 IC50 of the following compound: `CC1=NN(c2cccc(Cl)c2)C(=O)/C1=C\c1cn(CCCCOc2cc(O)c3c(=O)cc(-c4ccccc4)oc3c2)c2ccccc12`
A) 1.95

Q) Request the reported log10 IC50 associated with `COc1ccc2c(c1)c(CC(=O)N[C@H](CO)CCSC)c(C)n2C(=O)c1ccc(Cl)cc1`
A) 0.36

Q) Data request, read-out log10 IC50, for `CSc1nc2ccccc2n1-c1csc(NC/C(C)=N/N=c2\scc(-c3ccc(Cl)cc3)n2-c2ccccc2)n1`
A) 1.12

Q) Would you kindly share the measured log10 IC50 for `C/C(=N\NC(N)=S)c1nnn(-c2ccc(S(=O)(=O)Nc3nccs3)cc2)c1C` ?
A) 1.01

Q) Quick one: log10 IC50 for `FC(F)(F)c1ccc(/N=C/c2cn(Cc3ccccc3)c3ccccc23)cc1` ?
A) 1.98

---

# merged literature set: pIC50 with Prostaglandin G/H synthase 1 (Ovis aries)
# SYSTEM NAME: Prostaglandin G/H synthase 1 (Ovis aries)
# Sequence (P05979 whole entry): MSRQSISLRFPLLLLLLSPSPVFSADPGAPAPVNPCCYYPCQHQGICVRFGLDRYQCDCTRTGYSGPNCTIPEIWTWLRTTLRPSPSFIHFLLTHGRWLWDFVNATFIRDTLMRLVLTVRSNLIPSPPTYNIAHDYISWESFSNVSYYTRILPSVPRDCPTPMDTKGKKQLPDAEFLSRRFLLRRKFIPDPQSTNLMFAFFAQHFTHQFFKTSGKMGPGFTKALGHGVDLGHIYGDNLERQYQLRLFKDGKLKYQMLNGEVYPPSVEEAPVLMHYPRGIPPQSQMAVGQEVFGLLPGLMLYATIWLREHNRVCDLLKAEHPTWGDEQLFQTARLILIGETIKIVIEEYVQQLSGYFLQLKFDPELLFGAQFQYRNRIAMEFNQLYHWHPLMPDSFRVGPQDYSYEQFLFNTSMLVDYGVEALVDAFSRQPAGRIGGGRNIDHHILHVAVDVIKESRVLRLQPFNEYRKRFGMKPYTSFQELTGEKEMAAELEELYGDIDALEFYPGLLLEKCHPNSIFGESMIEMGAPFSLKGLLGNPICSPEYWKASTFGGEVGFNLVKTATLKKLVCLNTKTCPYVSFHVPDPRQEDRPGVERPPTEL
Remember the convention: pIC50 equals -log10 of concentration in molar.

Q) Returns the measured pIC50 for the input molecule. Input: `NS(=O)(=O)c1ccc(-n2nc(-c3ccc(F)cc3)nc2-c2ccccc2O)cc1`
A) 4.38

Q) # query: pIC50 of entry `Cc1cccnc1C#Cc1ccccc1S(C)(=O)=O`
A) 5.70

Q) pIC50 lookup needed for `C=CCC1=C[C@@]2(OC)[C@H](C)[C@@H](c3ccc4c(c3)OCO4)[C@H](C1=O)[C@H]2O` , thanks.
A) 4.05

Q) Entry `Cc1ccc(C2=C(c3ccnc(Cl)c3)C(=O)OC2)cc1` has what pIC50?
A) 5.30

Q) Dear colleague, I am looking for the recorded pIC50 of the following molecule: `Cc1ccc(Cl)c(Nc2ccccc2C(=O)O)c1Cl`
A) 7.30

Q) # get_value(readout='pIC50', item= `CSc1ccc(-c2nc3n(c2-c2ccncc2)CCC3)cc1` )
A) 4.00

Q) Form field: reported pIC50 of COc1ccc(C2=NOC3(Cc4ccccc4C3=O)C2c2ccc(S(C)(=O)=O)cc2)cc1 (stereo not drawn)
A) 5.00

Q) What value of pIC50 has been recorded for this entry: `COC1(c2cccc(CNc3ccc([N+](=O)[O-])cc3OCc3ccccc3)c2)CCOCC1`
A) 4.05

Q) Record request: pIC50 value, item `Brc1ccc(-c2nnc(CSc3nnc(-c4ccncc4)o3)o2)cc1`
A) 5.38

Q) Dear colleague, I am looking for the recorded pIC50 of the following molecule: `CCCCSc1ccccc1OC(C)=O`
A) 4.40

Q) Which value of pIC50 has been reported for COC(=O)C(C)c1ccc(-c2ccccc2)c(F)c1 (stereo not drawn) in the records?
A) 3.68

Q) Looking for the measured pIC50 of CS(=O)(=O)c1ccc(C2Sc3ccccc3C(=O)N2CCc2ccccc2)cc1 (stereo not drawn) , can you help?
A) 4.80

Q) Which pIC50 is reported for this molecule? `CS(=O)(=O)c1ccc(C#Cc2ccccn2)cc1`
A) 4.50

Q) So what's the measured pIC50 for this one? `Cc1ccc(C(=O)n2cc(/C=N/n3cnnc3)c3ccccc32)cc1`
A) 5.10

Q) Fill in: pIC50 of `CCCCCCCCNC(=O)c1ccccc1Nc1c(Cl)ccc(C)c1Cl` is ___
A) 7.30

Q) Which pIC50 is listed for COc1ccc(-c2nn(-c3ccccc3)cc2C2SC(NC(C)=O)=NN2C(C)=O)cc1 (stereo not drawn) ?
A) 4.10

Q) I would be grateful if you could share the reported pIC50 for CC(=O)NC1=NN(C(C)=O)C(c2cn(-c3ccccc3)nc2-c2ccc(Br)cc2)S1 (stereo not drawn) .
A) 4.19

Q) Form field: reported pIC50 of `COc1ccc(-c2noc(CCO)c2-c2ccc(OC)cc2)cc1`
A) 6.92

Q) Could you tell me which pIC50 is on file for `FC(F)(F)c1ccc(/N=C/c2c[nH]c3ccccc23)cc1` ?
A) 4.11

Q) Name the recorded pIC50 for CS(=O)(=O)c1ccc([C@@H]2[C@H](Oc3ccccc3)C(=O)N2c2ccc(F)cc2)cc1 (relative stereo) .
A) 4.72

Q) Please look up its pIC50: `CS(=O)(=O)c1ccc(-n2cccc2)cc1`
A) 4.07

Q) Please look up its pIC50: `CC(=O)NCc1cc(-n2nc(C(F)(F)F)cc2-c2ccc(C)cc2)ccc1S(N)(=O)=O`
A) 5.34
